# tested_system: Dihydroorotase (Bacillus anthracis, UniProt Q81WF0)
# Sequence (Q81WF0 whole entry): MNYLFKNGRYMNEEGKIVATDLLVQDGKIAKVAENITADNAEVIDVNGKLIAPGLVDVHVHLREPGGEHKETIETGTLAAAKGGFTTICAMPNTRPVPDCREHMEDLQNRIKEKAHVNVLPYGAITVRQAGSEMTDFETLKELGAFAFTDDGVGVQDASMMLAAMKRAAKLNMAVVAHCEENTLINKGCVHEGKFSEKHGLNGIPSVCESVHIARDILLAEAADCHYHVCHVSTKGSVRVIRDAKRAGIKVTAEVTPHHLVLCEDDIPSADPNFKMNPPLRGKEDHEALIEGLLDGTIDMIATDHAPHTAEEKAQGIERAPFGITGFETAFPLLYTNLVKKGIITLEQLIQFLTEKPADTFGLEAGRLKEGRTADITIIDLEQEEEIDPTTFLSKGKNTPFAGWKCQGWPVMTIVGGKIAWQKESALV
# measurement_description: Binding affinity to Bacillus anthracis Sterne His-tagged DHOase expressed in Escherichia coli BL21(DE3) Gold cells in presence of N-carbamyl-L-aspartate by surface plasmon resonance analysis
# Parameters: species or system Bacillus anthracis str. Sterne
# test_context: read-out: Kd
measured_metric: Kd (µM)

>>> readout_number("COc1ccc2[nH]c3c(c2c1)CCNC3(NC#N)SC (configuration not stated)")
144
>>> readout_number("CCC(=O)Nc1cc(OC)cc(OC)c1")
281
>>> readout_number("CCC(=O)Nc1ccc(OC)cc1OC")
170
>>> readout_number("COc1ccc2[nH]c3c(c2c1)CCNC3")
675
>>> readout_number("COc1ccc2[nH]c3c(c2c1)CN(C(C)=O)CC3")
215
>>> readout_number("COc1ccc2[nH]c3c(c2c1)CCNC31CCOCC1")
314
